Tested on: Influenza A virus
PROTOCOL DETAILS: Antiviral activity against Influenza A virus (A/Puerto Rico/8/34(H1N1)) infected in MDCK cells assessed as virus yield after 48 hrs end-point dilution method
Assay type: functional, organism-based
CONDITIONS USED: A/Puerto Rico/8/1934(H1N1)
# note: exactly 20 µg/mL is not below, so it is false (0); use true (1) for EC50 strictly under it

Field: example entries. Status: answers known.
COMPOUND	CATEGORY LABEL
CCn1n[n+](C23CC4CC(CC(C4)C2)C3)nc1[S-]	true (1)
O=C(O)Cc1nnn(C23CC4CC(CC(C4)C2)C3)n1	false (0)
Cl.NC12CC3CC(C1)CC(n1ncnn1)(C3)C2	false (0)
O=c1[nH]nnn1-c1ccccc1	false (0)

API: query returns whether the compound falls strictly under 20 µg/mL in EC50. Query: CCOC(=O)Cc1nnn(C23CC4CC(CC(N)(C4)C2)C3)n1.Cl
true (1)

Please check: EC50 for Clc1ncn(C23CC4CC(CC(C4)C2)C3)n1 , strictly under 20 µg/mL or not?
false (0)

Quick check: EC50 of S=c1[nH]nnn1C12CC3CC(CC(C3)C1)C2 under 20 µg/mL?
true (1)

Does the reported EC50 of Cc1nnn(C23CC4CC(CC(C(C)N)(C4)C2)C3)n1.Cl (centres undefined) stay below 20 µg/mL?
true (1)

I'd appreciate it if you could check whether c1nnn(C23CC4CC(CC(C4)C2)C3)n1 has EC50 smaller than 20 µg/mL.
false (0)

====

# key: entry, value: Activity
System: MDCK
PROTOCOL DETAILS: Cytotoxicity against MDCK cells after 48 hrs by MTT assay
Type: cell-based, Canis lupus familiaris
CONDITIONS USED: dog
Express the result in µg/mL but write the number alone.

Consider the following illustrative entries.
MOLECULE	Activity / µg/mL
CC(N)C12CC3CC(C1)CC(n1cnc([N+](=O)[O-])n1)(C3)C2.Cl (configuration not stated)	131
c1ncn(C23CC4CC(CC(C4)C2)C3)n1	358
CC(N)C12CC3CC(C1)CC(n1cnc(Cl)n1)(C3)C2.Cl (configuration not stated)	140
O=S(=O)([O-])O.c1ccc(-n2n[n+](C34CC5CC(CC(C5)C3)C4)nc2SC23CC4CC(CC(C4)C2)C3)cc1	289
Cc1nnn(C23CC4CC(CC(C4)C2)C3)n1	569
c1nnnn1C12CC3CC(CC(C3)C1)C2	281
CCOC(=O)Cc1nnn(C23CC4CC(CC(N)(C4)C2)C3)n1.Cl	127
[S-]c1n[n+](C23CC4CC(CC(C4)C2)C3)nn1-c1ccccc1	300

Below: the item to evaluate.
What does the data say about its Activity? Entry: Cc1nnn(C23CC4CC(CC(C(C)N)(C4)C2)C3)n1.Cl (configuration not stated)
242

====

PROTOCOL DETAILS: Selectivity index, ratio of CTD50 for MDCK cells to EC50 for Influenza A virus (A/Puerto Rico/8/34(H1N1))
Assay type: toxicity, cell-based
CONDITIONS USED: dog, read-out: Selectivity Index
We use 10 as the dividing line for selectivity ratio: on or above the line is Fulfilled, below is Not fulfilled.

Would you please look over these solved cases?
COMPOUND	CATEGORY LABEL
CCCCOC(=O)Cc1nnn(C23CC4CC(CC(C4)C2)C3)n1	Not fulfilled
Cc1nnn(C23CC4CC(CC(C(C)N)(C4)C2)C3)n1.Cl (stereo unspecified)	Fulfilled
CCn1n[n+](C23CC4CC(CC(C4)C2)C3)nc1[S-]	Fulfilled

Consider now this further compound.
Item CCc1nnn(C23CC4CC(CC(C(C)N)(C4)C2)C3)n1.Cl (stereo unspecified) with selectivity ratio of 10 or above?
Fulfilled
